Taken from a collection of fitness landscapes (doi:10.1126/science.1257360).

B1: PhoQ; a variant is named by its letters at X, in order, P23837 (parent)
chain: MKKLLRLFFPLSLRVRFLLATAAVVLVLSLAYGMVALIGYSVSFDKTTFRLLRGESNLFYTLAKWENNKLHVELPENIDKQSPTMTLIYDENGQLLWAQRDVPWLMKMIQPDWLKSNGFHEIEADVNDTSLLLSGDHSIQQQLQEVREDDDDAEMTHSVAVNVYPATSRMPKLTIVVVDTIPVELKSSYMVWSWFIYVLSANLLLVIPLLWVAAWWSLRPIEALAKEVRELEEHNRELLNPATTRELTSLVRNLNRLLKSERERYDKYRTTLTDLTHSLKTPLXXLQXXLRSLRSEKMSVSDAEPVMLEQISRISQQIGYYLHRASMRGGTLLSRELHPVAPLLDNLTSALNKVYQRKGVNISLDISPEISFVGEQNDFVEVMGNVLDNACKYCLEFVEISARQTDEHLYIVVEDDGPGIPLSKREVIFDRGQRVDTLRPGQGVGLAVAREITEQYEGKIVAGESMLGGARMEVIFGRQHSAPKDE

- Variants of: B1
- PROTOCOL NOTES: enrichment ratio after two sorts for PhoP signalling (ratio (wild type AVST 3.29)); higher = more functional
- CONDITION CONTEXT: with PhoP (E. coli)
Whole data set: some 140,000 sequences, median “enrichment ratio after two sorts for PhoP signalling” near 0, cut for the highest 2% near 11. Many of the other results were omitted from the sample, so the highest values are more common in it than they were.
MEASURED METRIC: enrichment ratio

AQCI; 8.62
MHPM; ≤ 0.25
AQCQ; 31.6
IWYQ; ≤ 0.25
EQCQ; ≤ 0.25

Sample AKFM ; enrichment ratio observed: 0.887

Sample AIFM ; enrichment ratio observed: ≤ 0.25

Sample TCYL ; enrichment ratio observed: 16.2

Sample SCTC ; enrichment ratio observed: 7.94

Sample VHGV ; enrichment ratio observed: ≤ 0.25

Sample INFD ; enrichment ratio observed: ≤ 0.25
